Items are presented alongside their recorded EC50.
Target: human GLP-1 receptor (hGLP-1R) (Homo sapiens)
Construct: expressed in transfected cells
Sequence (P43220 24-463): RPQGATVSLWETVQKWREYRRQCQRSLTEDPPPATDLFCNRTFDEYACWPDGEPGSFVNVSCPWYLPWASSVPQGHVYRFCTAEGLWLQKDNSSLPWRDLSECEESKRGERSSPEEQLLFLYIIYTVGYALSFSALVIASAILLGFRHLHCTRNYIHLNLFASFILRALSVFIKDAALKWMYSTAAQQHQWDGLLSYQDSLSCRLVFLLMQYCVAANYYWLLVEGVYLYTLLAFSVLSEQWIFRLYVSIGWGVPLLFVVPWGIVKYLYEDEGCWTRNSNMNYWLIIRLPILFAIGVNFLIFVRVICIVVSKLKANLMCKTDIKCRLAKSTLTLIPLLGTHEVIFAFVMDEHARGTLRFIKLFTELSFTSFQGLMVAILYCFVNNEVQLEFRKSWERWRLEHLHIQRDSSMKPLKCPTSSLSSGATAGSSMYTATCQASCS
Experiment: GLP-1 receptor assay, method A (CRE-luciferase reporter, BHK cells)
Assay type: cell-based
Conditions: hGLP-1R Potency, 1% HSA, EC50, method A, in the presence of 1% HSA
Description: To assess how the activation of the receptors is potentially influenced by the presence of human serum albumin (HSA), the in vitro assays were performed in the absence of HSA and presence of 1% (w/v) HSA. Cells at approximately 80-90% confluence were washed once in PBS (Gibco 14190-094) and loosened from the cell flasks with Versene (Gibco, 15040-033). […] Cells were aliquoted and stored at −180° C. until use. […]
Numbered stars: 1 amine (or outer) side, 2 acyl side, 3 side chain; on linkers, the order of the positions; unused ones are H or OH. Square brackets hold non-standard residues; d marks the D form. Side chains are listed from the residue outwards. * marks the point of attachment. C20 diacid = O=C(O)CCCCCCCCCCCCCCCCCCC(=O)*; C18 diacid = O=C(O)CCCCCCCCCCCCCCCCC(=O)*; γGlu = O=C(O)[C@H](CCC(=O)[*:2])N[*:1]; AEEA = NCCOCCOCC(=O)O; Aib = CC(C)(N)C(=O)O
Use nM as the unit, but write only the number.

Past entries and their recorded results:
H[Aib]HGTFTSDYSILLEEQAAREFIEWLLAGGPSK([AEEA-AEEA-γGlu-C18 diacid])GAPPPSGGGASELSTAALGRLSAELHRLATLPRTETGSGSP-NH2 [Compound 86] :: 0.13
Y[Aib]EGTFTSDYSILLEEQAAREFIEWLLAGGPSSGAGQAPGQAPGASHLSTAQTQRLSAELHQLK([AEEA-AEEA-γGlu-C18 diacid])TLPRTETGSGSP-NH2 [Compound 102] :: 0.047
H[Aib]HGTFTSDYSILLEEQAAREFIEWLLAGGPSSGAGQAPGQAPGASHLSTAQTARLSAELHK([AEEA-AEEA-γGlu-C20 diacid])LATLPRTETGSGSP-NH2 [Compound 104] :: 0.0191
Y[Aib]EGTFTSDYSILLEEQAAREFIEWLLAGGPSSGAGQAPGQAPGASHLSTAQTQRLSAELHRLK([AEEA-AEEA-γGlu-C18 diacid])TLPRTETGSGSP-NH2 [Compound 56] :: 0.0584

The reported EC50 of the substance Y[Aib]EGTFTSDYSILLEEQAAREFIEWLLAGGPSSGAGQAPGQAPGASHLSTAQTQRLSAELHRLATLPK([AEEA-AEEA-γGlu-C18 diacid])TETGSGSP-NH2 [Compound 57] was 0.0296

So, Y[Aib]EGTFTSDYSILLEEQAAREFIEWLLAGGPSSGAPPPSGGGEASHLSTAQTQRLSAK([AEEA-AEEA-γGlu-C18 diacid])LHRLATLPRTETGSGSP-NH2 [Compound 109] ? Its EC50 was 0.0947

The substance listed as H[Aib]HGTFTSDYSILLEEQAAREFIEWLLAGGPSSGEASHLSTAALGRLSAELHRLATLPK([AEEA-AEEA-γGlu-C18 diacid])TETGSGSP-NH2 [Compound 90] shows EC50 equal to 0.0386

Measured EC50 of Y[Aib]EGTFTSDYSILLEEQAAREFIEWLLAGGPSGGEASHLSTAQTQRLSAELHK([AEEA-AEEA-γGlu-C18 diacid])LATLPRTETGSGSP-NH2 [Compound 74] : 0.141

In plain terms, H[Aib]HGTFTSDYSILLEEQAAREFIEWLLAGGPSSGALQAPGQAPGASHLSTAQTARLSAELHRLK([AEEA-AEEA-γGlu-C18 diacid])TLPRTETGSGSP-NH2 [Compound 106] has a documented EC50 of 0.0111

What the record says about H[Aib]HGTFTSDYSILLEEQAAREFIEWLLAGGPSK([AEEA-AEEA-γGlu-C18 diacid])GEASQLSTAALGRLSAELHTLATLPRTETGSGSP-NH2 [Compound 63] : EC50 is 0.101

Sure, the documented EC50 for H[Aib]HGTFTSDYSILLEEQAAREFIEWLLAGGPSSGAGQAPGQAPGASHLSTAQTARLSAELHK([AEEA-AEEA-γGlu-C18 diacid])LATLPRTETGSGSP-NH2 [Compound 103] is 0.0331

// recorded EC50 for Y[Aib]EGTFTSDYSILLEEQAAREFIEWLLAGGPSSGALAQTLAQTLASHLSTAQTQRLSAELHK([AEEA-AEEA-γGlu-C18 diacid])LATLPRTETGSGSP-NH2 [Compound 48] : 0.105

Per the records, this substance ( Y[Aib]EGTFTSDYSILLEEQAAREFIEWLLAGGPSRGEASELSTAALGRLSAELHK([AEEA-AEEA-γGlu-C18 diacid])LATLPRTETGSGSP-NH2 [Compound 67] ) has EC50 equal to 0.105
